Tested on: RXF 393 renal
method: NCI tumour cell line growth inhibition, 48 h
measuredQuantity: TGI

Worked examples follow.
compound	subjectOfTest	TGI
COc1ccc2c(c1OC)O/C(=C\c1ncc([N+](=O)[O-])n1C)C2=O	RXF 393 renal	2.27 µM
COc1ccc(N2C(=O)C(=O)C3(CCCCC3)C2=O)c2ccccc12	RXF 393 renal	> 10 µM
C/C(C=O)=C/[C@@]1(C)O[C@@H](C)[C@@](C)(O)[C@@H]1O	RXF 393 renal	> 100 µM

Batch of 8 compounds: report TGI for each.
1. O=CNc1ccccc1OCCOc1ccccc1NC=O
2. CC(Cn1c2c(c3cc(O)ccc31)CCc1ccc(O)cc1-2)N(C)C (stereo unspecified)
3. COc1cc(NC2CCCCC2O)c2nc(-c3ccc(Cl)cc3)ccc2c1 (stereo unspecified)
4. O=[N+]1[C@H](c2ccccc2)[C@H](c2ccccc2)N1[O-]
5. O=C(/C=C/c1ccccc1O)c1ccccc1Cl
6. COc1cc(N(C)C)c(OC)cc1C=C1C=CC=C1
7. Cc1cc(C)nc(NS(=O)(=O)c2ccc(Nc3c4ccccc4nc4c(C(=O)NCCN(C)C)cccc34)cc2)n1
8. COc1ccc(-c2cc(/C=C/C(=O)c3ccc(N)cc3)[nH]n2)cc1

> 100 µM
53.2 µM
4.58 µM
28.3 µM
> 100 µM
> 100 µM
20.2 µM
4.19 µM
